- experimentalSystem: T1, GIP receptor (UniProt P48546 22-466)
- T1 sequence (looked up): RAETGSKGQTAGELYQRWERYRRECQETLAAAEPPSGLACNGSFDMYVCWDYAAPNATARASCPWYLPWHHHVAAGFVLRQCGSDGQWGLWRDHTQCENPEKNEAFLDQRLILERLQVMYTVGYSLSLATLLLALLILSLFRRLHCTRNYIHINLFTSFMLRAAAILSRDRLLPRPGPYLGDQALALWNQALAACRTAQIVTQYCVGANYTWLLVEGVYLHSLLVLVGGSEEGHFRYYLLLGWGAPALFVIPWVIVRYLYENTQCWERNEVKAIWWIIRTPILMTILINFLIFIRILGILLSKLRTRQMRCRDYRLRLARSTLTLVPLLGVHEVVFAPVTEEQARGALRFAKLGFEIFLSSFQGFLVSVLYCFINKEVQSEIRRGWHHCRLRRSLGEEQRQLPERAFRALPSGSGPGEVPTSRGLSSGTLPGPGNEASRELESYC
- assayComment: cell-based or functional assay
Square brackets hold non-standard residues; d marks the D form. Ends that are not written are not given here. 40K‑TE PEG = 40 kDa PEG covalently bound via thioether, formed by reaction of the free thiol of the peptide (Cys side chain) with an iodoacetic-functionalized PEG; Aib = CC(C)(N)C(=O)O
Attribute: EC50 (nM) at GIP receptor
Output spec: scalar in nM, unitless text.

• H[Aib]QGTFTSDKSKYLDERRA[Aib]DFVQWLMNT-NH2 (not fully specified (residue 10); printed as HaibQGTFTSDK(C16 acyl)SKYLDERRAaibDFVQWLMNT-amide) [peptide of SEQ ID NO: 59] = 7.48

QUERY: Give its EC50 (nM) at GIP receptor value. Item: H[Aib]QGTFTSDYSKYLDEKRA[Aib]EFVC(40K‑TE PEG)WLMDT-NH2 [peptide of SEQ ID NO: 15]
RESULT: 316
